# study_system: T1, Mcl-1, Q07820
# T1 chain: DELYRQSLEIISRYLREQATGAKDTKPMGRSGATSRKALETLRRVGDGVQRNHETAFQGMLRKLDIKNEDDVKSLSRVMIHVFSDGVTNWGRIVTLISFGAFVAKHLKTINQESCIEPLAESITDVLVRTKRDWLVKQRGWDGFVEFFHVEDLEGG
# experiment: peptide SPOT array, c-Myc-tagged receptor at 1 uM or 100 nM, anti-c-Myc-Cy3
Give measured SPOT signal as a fraction of Bim BH3's signal on the same receptor and array for each item. Keep answers brief.
One number for each entry.

Field: example entries. Status: answers known.
> print(dat)
                                 binder  quantitative.result
1     LGLGELAGLTVANELDSLTYDIANNK [STRN]                 0.01
2    SAGVPVRGVELQAALERFARCFGRTD [TIGD7]                 0.05
3    KKDKARVSELLQGLSFSGDSDVEKDN [PGBD1]                 0.01
4    PDKRLTLSQIDQYVADNFPFYNKSKA [FOXI1]                 0.39
5  MRPEIWIAQELRRILDEFNAYYARRV [BCL2L11]                 0.05

Give SPOT signal as a fraction of Bim BH3's signal on the same receptor and array for all binders that follow.
1. DEHISYVATKVCHLGDQLEGVNTPRQ [EXOC5]
2. KRALIQCAKDIAKASDEVTRLAKEVA [VCL]

Output line:
1: 0.01; 2: 0.03
